Please provide measured melting point for the entries that follow.

Request: Input "CCOC(=O)c1ccc(CN2CCC(NC(=O)OC(C)(C)C)CC2)cc1" , output reported melting point.
Response: 74 to 76 °C

Request: Input "CCOC(=O)c1c(C)nn2ccc3c(c12)CCO3" , output reported melting point.
Response: 173 to 174 °C

Request: Input "O=S(=O)(NN=C(Cl)c1ccc(F)cc1Cl)c1ccccc1" , output reported melting point.
Response: 133 to 135 °C

Request: Input "CCOC(=O)c1c(CCc2ccc(OC)cc2)nc2c(c1-c1ccc(C(=O)NCc3ccccn3)cc1)C(=O)N1CCC[C@H]1C2" , output reported melting point.
Response: > 200 °C

Request: Input "OC(CCl)(c1ccccc1)c1ccccc1" , output reported melting point.
Response: 56 to 57 °C

Request: Input CCOCN1C(C)=C(C(=O)OC)C(c2cccc([N+](=O)[O-])c2)C(C(=O)OCCBr)=C1C (stereo not given) , output reported melting point.
Response: 72.5 to 74 °C

Request: Input Cc1cc(C)n(-c2ccc(OC=C3C=CC=CC3n3nnn(C)c3=O)c(Cl)c2)n1 (stereo not given) , output reported melting point.
Response: 122 to 124 °C

Request: Input "Nc1cc(NC(=O)c2ccccc2)ccn1" , output reported melting point.
Response: 187 to 188 °C

Request: Input "NC(=O)CN1CCN(c2cccccc2=O)CC1" , output reported melting point.
Response: 169 to 171 °C

Request: Input "COc1cc(OCC(CO)CO)c(C=CC(=O)c2ccc(S(N)(=O)=O)cc2)cc1-c1cccs1" , output reported melting point.
Response: 123 to 124 °C

Request: Input "CCOC(=O)Cc1cnc(NS(C)(=O)=O)s1" , output reported melting point.
Response: 153 to 155 °C

Request: Input "CCCc1ncc(CC(=O)O)s1" , output reported melting point.
Response: 95 °C

Request: Input "CC(=O)NC[C@H]1CN(c2cc(F)c3c(c2)CCCCC3=O)C(=O)O1" , output reported melting point.
Response: 151 to 152 °C

Request: Input O=C(Nc1ccc(Cl)cc1)N1CC(c2ccccc2)C(c2ccc(Cl)cc2)=N1 (stereo not given) , output reported melting point.
Response: 173 to 175 °C

Request: Input "CCc1nc(OC)c(NC(=O)N2CCN(c3cc(C)cc(C)c3)CC2)cc1C" , output reported melting point.
Response: 135 to 136 °C

Request: Input "C(=C(c1ccccc1)N1CCCCC1)C1=NCCC1" , output reported melting point.
Response: 123 to 124 °C

Request: Input Cc1[nH]c(=O)ccc1-c1ccc(S(C)=O)cc1 (stereo not given) , output reported melting point.
Response: 262 to 264 °C

Request: Input "CC(C)OC(=O)c1cc2c3ccccc3n(Cc3ccccc3)c2s1" , output reported melting point.
Response: 88 to 89 °C

Request: Input "CC1(C)C(=O)C(C)(C)c2cc3[nH]c(SCc4ccccn4)nc3cc21" , output reported melting point.
Response: 167 to 168 °C

Request: Input Cc1ccc(S(=O)(=O)N2[C@@H](CCl)CC[C@H]2c2ccc(F)cc2)cc1 (racemic) , output reported melting point.
Response: 130 °C

###

Please provide measured melting point for the entries that follow.

Request: Input OC(c1ccc(Cl)cc1)C(Nn1cncn1)c1ccc(F)cc1F (stereo not drawn) , output reported melting point.
Response: 61 to 76 °C

Request: Input O=c1cc(C2CCc3ccccc3C2)[nH]c2ccccc12 (racemic) , output reported melting point.
Response: > 300 °C

Request: Input "CN(C#N)C(=O)CCC(=O)N(C)C#N" , output reported melting point.
Response: 112 to 114 °C
